Read-out: Secreted IgG (sIgG), gene 3500
assaySummary: BSK_BT_sIgG: BioMAP Diversity Plus: BT Assay for Secreted IgG (sIgG) Biomarker Activity (AID 2284226)
experimentalConditions: primary human B cells with PBMC
Active and inactive are the calls of the source. Rule for the calls: active = hit-call score of the fitted dose curve at least 0.9, where 1 is the maximum; inactive = score below 0.9.
Please state which outcome applies, choosing from active, inactive

Use the examples below as a reference point.
NS(=O)(=O)C(F)(F)C(F)(F)C(F)(F)C(F)(F)C(F)(F)C(F)(F)F :: inactive
CCN(CC)c1ccc2c(c1)Oc1cc(N(CC)CC)ccc1C21OC(=O)c2ccccc21 :: active
O=C=Nc1cccc2c(N=C=O)cccc12 :: active
O=C1C=CC(=O)N1c1ccc(Cc2ccc(N3C(=O)C=CC3=O)cc2)cc1 :: active
CCOC(=O)CC(=O)C(F)(F)C(F)(F)F :: inactive
CCN(CC)c1ccc(N=Nc2ccccc2)cc1 :: active
NC(=O)C(F)(F)C(F)(F)C(F)(F)C(F)F :: inactive
NCC(F)(F)C(F)(F)C(F)(F)C(F)(F)C(F)(F)C(F)(F)F :: inactive
Brc1nc2ccccc2s1 :: inactive
O=C(Cl)C(F)(F)C(F)(F)C(F)(F)C(F)(F)C(F)(F)C(F)(F)F :: inactive

In: Which result was noted for this compound in the test: `CCN(CC)c1ccc(C=O)c(O)c1`
Out: active

In: What was the test verdict on `CCN(CC)c1ccc(C=O)cc1` ?
Out: inactive

In: State the result this test recorded for `O=S(=O)(O)CCC(F)(F)C(F)(F)C(F)(F)C(F)(F)F` .
Out: inactive

###

Read-out: CD40, CD40 (gene 958)
assaySummary: BSK_SAg_CD40: BioMAP Diversity Plus: SAg Assay for CD40 Biomarker Activity (AID 2283088)
experimentalConditions: primary human HUVEC with PBMC; actives raise or lower the signal
Activity calls are given as the source filed them. How the source made its calls: active means hit-call score of the fitted dose curve at least 0.9, where 1 is the maximum; inactive means score below 0.9.
Select the correct class. Options are 1 = active, 0 = inactive and nothing else.

Examples with answers:
O=C(O)C(F)(F)C(F)(F)C(F)(F)C(F)(F)C(F)(F)C(F)(F)C(F)F :: 0
CC1=CC2C3C=CC(C3)C2C1C (stereo not drawn) :: 0
FC(F)(F)C(F)(F)C(F)(F)C(F)(F)C(F)(F)C(F)(F)C(F)(F)CCI :: 0
O=C1c2c(O)ccc(Nc3ccc(CCO)cc3)c2C(=O)c2c([N+](=O)[O-])ccc(O)c21 :: 1
Cc1ccc(S(=O)(=O)C(I)I)cc1 :: 1

In: Status in this test for `CN(C(=O)C(F)(F)C(F)(F)C(F)(F)F)[Si](C)(C)C` ?
Out: 0

In: GET /call?item= `Cc1cc(C)c(O)c(C(C)(C)C)c1` returns the recorded outcome of this test.
Out: 1

In: Name the outcome recorded for `O=C(O)C(F)(F)C(F)(F)C(F)(F)C(=O)O` in the assay.
Out: 0

In: Hey, what did the test say about COC(F)(C(F)F)C(F)(F)F (stereo not drawn) ?
Out: 0

###

Read-out: Thrombomodulin, THBD (gene 7056)
assaySummary: BSK_CASM3C_Thrombomodulin: BioMAP Diversity Plus: CASM3C Assay for Thrombomodulin Biomarker Activity (AID 2283051);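 note: thrombomodulin protein level measured by ELISA 24 h after dosing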
experimentalConditions: primary human coronary artery smooth muscle cells; actives raise or lower the signal
Activity calls are given as the source filed them. How the source made its calls: active means hit-call score of the fitted dose curve at least 0.9, where 1 is the maximum; inactive means score below 0.9.
Parameter call: string, one of active, inactive

Example entries begin here.
Cc1cc(C)c(O)c(C(C)(C)C)c1 :: inactive
CCOC(C=C(C)CCC=C(C)C)OCC :: inactive
O=S(=O)(Cl)C(F)(F)C(F)(F)C(F)(F)C(F)(F)C(F)(F)C(F)(F)C(F)(F)C(F)(F)F :: inactive
CC1=CC2C3C=CC(C3)C2C1C (stereo unspecified) :: inactive
NC(=O)C(F)(F)C(F)(F)C(F)(F)F :: inactive

In: Would you mind telling me which call this test gave `O=C1c2c(O)ccc(Nc3ccc(CCO)cc3)c2C(=O)c2c([N+](=O)[O-])ccc(O)c21` ?
Out: active

In: Check the results log: what was the call for `Brc1nc2ccccc2s1` ?
Out: inactive

In: GET /call?item= `CN(C(=O)C(F)(F)C(F)(F)C(F)(F)F)[Si](C)(C)C` returns the recorded outcome of this test.
Out: inactive

In: Hey, what did the test say about `CCN(CC)c1ccc2c(c1)Oc1cc(N(CC)CC)ccc1C21OC(=O)c2ccccc21` ?
Out: inactive

In: How was `FC(F)(F)C(F)(F)C(F)(F)C(F)(F)C(F)(F)C(F)(F)C(F)(F)CCI` classified in this test?
Out: inactive

In: Recorded call for `O=C(O)CCC(F)(F)C(F)(F)C(F)(F)F` ?
Out: inactive

In: Hi, sorry to bother you, what did the test record for `Cc1ccc(S(=O)(=O)C(I)I)cc1` ?
Out: inactive

In: Answer briefly: the call reported for `O=C=Nc1cccc2c(N=C=O)cccc12` in this assay.
Out: inactive

In: Call for entry `Cc1ccc(O)c(-n2nc3ccccc3n2)c1` :
Out: inactive

In: Short answer needed: outcome of this test for `O=C(O)C(F)(F)C(F)(F)C(F)(F)C(F)(F)C(F)(F)C(F)(F)C(F)F` ?
Out: inactive

In: Query: recorded result category for `C[Si](Cl)(Cl)CCC(F)(F)C(F)(F)C(F)(F)C(F)(F)C(F)(F)C(F)(F)F` in this test
Out: inactive
